Molecular target: Peptide 5: Biotin-…-[Tyr(PC)]-acid
Sequence (peptide, as listed by the source): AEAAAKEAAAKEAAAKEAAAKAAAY
Assay: scFv ELISA
Some binders, each annotated with its measured OD450.
property name: OD450

[[record]]
binder = "PcOxP_DB03_A08 (scFv, V domains shown, scFv in periplasmic extract) VH: EVQLLESGGGLVQPGGSLRLSCAASGFTFSDVYMEWVRQAPGKGLEWVAASRNKANDYTTEYADSVKGRFTISRDNSKNTLYLQMNSLRAEDTAVYYCARDYYGSSYWYFDVWGQGTLVTVSS VL: DIQMTQSPSSLSASVGDRVTITCTASESLYSSKHKVHYLAWYQQKPGKAPKLLIYGASNRYIGVPSRFSGSGSGTDFTLTISSLQPEDFATYYCAQFYSYPLTFGGGTKVEIK"
observed_measurement = "0.71 OD450"

[[record]]
binder = "PcOxP_DB03_F11 (scFv, V domains shown, scFv in periplasmic extract) VH: EVQLLESGGGLVQPGGSLRLSCAASGFTFSDYYMEWVRQAPGKGLEWVAASRNKANSYTTAYADSVKGRFTISRDNSKNTLYLQMNSLRAEDTAVYYCARDYYGSSYWYFDVWGQGTLVTVSS VL: DIVMTQSPDSLAVSLGERATINCTSSQSLLYSSNKKHYLAWYQQKPGQPPKLLIYGASNRYIGVPDRFSGSGSGTDFTLTISSLQAEDVAVYYCAQFYEYPLTFGGGTKVEIK"
observed_measurement = "1.43 OD450"

[[record]]
binder = "PcOxP_DB01_A05 (scFv, V domains shown, scFv in periplasmic extract) VH: EVQLLESGGGLVQPGGSLRLSCAASGFTFSDYYMEWVRQAPGKGLEWVAASRNKANDYTTEYADSVKGRFTISRDNSKNTLYLQMNSLRAEDTAVYYCARDYYGNSYWYFDVWGQGTLVTVSS VL: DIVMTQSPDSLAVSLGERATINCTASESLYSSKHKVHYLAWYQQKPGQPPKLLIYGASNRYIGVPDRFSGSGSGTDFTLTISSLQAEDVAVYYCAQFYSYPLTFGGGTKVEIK"
observed_measurement = "1.28 OD450"

[[record]]
binder = "PcOxP_DB03_G10 (scFv, V domains shown, scFv in periplasmic extract) VH: EVQLLESGGGLVQPGGSLRLSCAASGFTFSDAYMEWVRQAPGKGLEWVAASRNKANDYTTEYADSVKGRFTISRDNSKNTLYLQMNSLRAEDTAVYYCARDYYGSSYWYFDVWGQGTLVTVSS VL: DIQMTQSPSSLSASVGDRVTITCTASESLYSSKHKVHYLAWYQQKPGKAPKLLIYGASNRQIGVPSRFSGSGSGTDFTLTISSLQPEDFATYYCAQFYTYPLTFGGGTKVEIK"
observed_measurement = "1.21 OD450"

[[record]]
binder = "PcOxP_DB01_E04 (scFv, V domains shown, scFv in periplasmic extract) VH: EVQLLESGGGLVQPGGSLRLSCAASGFTFSDAYMEWVRQAPGKGLEWVAASRNKANDYTTEYADSVKGRFTISRDNSKNTLYLQMNSLRAEDTAVYYCARDYYGSSYWYFDTWGQGTLVTVSS VL: DIQMTQSPSSLSASVGDRVTITCTASESLYSSKHKVHYLAWYQQKPGKAPKLLIYGASNRYDGVPSRFSGSGSGTDFTLTISSLQPEDFATYYCAQFYSYPLTFGGGTKVEIK"
observed_measurement = "1.12 OD450"

[[record]]
binder = "PcOxP_DB03_E09 (scFv, V domains shown, scFv in periplasmic extract) VH: EVQLLESGGGLVQPGGSLRLSCAASGFTASDFYMEWVRQAPGKGLEWVAASRNKANDQTTEYADSVKGRFTISRDNSKNTLYLQMNSLRAEDTAVYYCARDYYGSSYWYFDSWGQGTLVTVSS VL: DIQMTQSPSSLSASVGDRVTITCTASESLYSSKHKVHYLAWYQQKPGKAPKLLIYGASNRQSGVPSRFSGSGSGTDFTLTISSLQPEDFATYYCAQFYSYPLTFGGGTKVEIK"
observed_measurement = "0.72 OD450"

[[record]]
binder = "PcOxP_DB04_B10 (scFv, V domains shown, scFv in periplasmic extract) VH: EVQLLESGGGLVQPGGSLRLSCAASGFTDSDFYMEWVRQAPGKGLEWVAASRNKANGYTTEYADSVKGRFTISRDNSKNTLYLQMNSLRAEDTAVYYCARDYYGSSYWYFDVWGQGTLVTVSS VL: DIVMTQSPDSLAVSLGERATINCTASESLYSSKHKVHYLAWYQQKPGQPPKLLIYGASNRPIGVPDRFSGSGSGTDFTLTISSLQAEDVAVYYCGQFYSYPLTFGGGTKVEIK"
observed_measurement = "1.56 OD450"

[[record]]
binder = "PcOxP_DB01_E08 (scFv, V domains shown, scFv in periplasmic extract) VH: EVQLLESGGGLVQPGGSLRLSCAASGDTFSDFYMEWVRQAPGKGLEWVAASRNKANAYTTEYADSVKGRFTISRDNSKNTLYLQMNSLRAEDTAVYYCARDYYGQSYWYFDVWGQGTLVTVSS VL: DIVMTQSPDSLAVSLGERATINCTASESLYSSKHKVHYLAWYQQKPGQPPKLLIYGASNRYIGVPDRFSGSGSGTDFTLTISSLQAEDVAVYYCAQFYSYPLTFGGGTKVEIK"
observed_measurement = "0.82 OD450"

